// provenance: patent US12414958B2

System: ATCC 43300 MRSA strain
Experiment: In vivo murine model of catheter associated infection, 24 h and 72 h MRSA biofilms
Parameters: species or system Staphylococcus aureus
Settings: Biofilm (72 h); 5.5-day treatment (D3-D8); change from baseline D 3; BALB/c mice
Procedure: Two experimental settings were used in this study to evaluate the treatment efficacies against early (24h) and/or mature (72h) MRSA catheter formed biofilms. […] Post treatment CFUs were counted on D6 or D8 and results were expressed as Log10 CFU/g of catheter (Mean±SEM). The limit of detection was determined as being 1 Log10 CFU/g of catheter. […] In vivo induction of antibiotic-resistant bacteria was analysed for all tested antibiotics. […]
Measured Metric: ΔLog10 CFU/g of catheter from (D 3) Mean ± SEM

[
  {
    "Molecule": "CN[C@H](CC(C)C)C(=O)N[C@H]1C(=O)N[C@@H](CC(N)=O)C(=O)N[C@H]2C(=O)N[C@H]3C(=O)N[C@H](C(=O)N[C@H](C(=O)O)c4cc(O)cc(O)c4-c4cc3ccc4O)[C@H](O)c3ccc(c(Cl)c3)Oc3cc2cc(c3O[C@@H]2O[C@H](CO)[C@@H](O)[C@H](O)[C@H]2O[C@H]2C[C@](C)(N)[C@H](O)[C@H](C)O2)Oc2ccc(cc2Cl)[C@H]1O [Vancomycin]",
    "Assay Result": "−1.94 ± 0.077 Log10 CFU/g of catheter"
  },
  {
    "Molecule": "Cc1c(CN(C)C(=O)/C=C/c2cnc3c(c2)CCC(=O)N3COP(=O)(O)O)oc2ccccc12 [Debio 1450]",
    "Assay Result": "−1.03 ± 0.069 Log10 CFU/g of catheter"
  },
  {
    "Molecule": "CCCCCCCCCC(=O)N[C@@H](Cc1c[nH]c2ccccc12)C(=O)N[C@H](CC(N)=O)C(=O)N[C@@H](CC(=O)O)C(=O)N[C@@H]1C(=O)NCC(=O)N[C@@H](CCCN)C(=O)N[C@@H](CC(=O)O)C(=O)N[C@H](C)C(=O)N[C@@H](CC(=O)O)C(=O)NCC(=O)N[C@H](CO)C(=O)N[C@@H]([C@H](C)CC(=O)O)C(=O)N[C@@H](CC(=O)c2ccccc2N)C(=O)O[C@@H]1C [Daptomycin]",
    "Assay Result": "−1.37 ± 0.104 Log10 CFU/g of catheter"
  },
  {
    "Molecule": "CO[C@H]1/C=C/O[C@@]2(C)Oc3c(C)c(O)c4c(O)c(c(/C=N/N5CCN(C)CC5)c(O)c4c3C2=O)NC(=O)/C(C)=C\\C=C\\[C@H](C)[C@H](O)[C@@H](C)[C@@H](O)[C@@H](C)[C@H](OC(C)=O)[C@@H]1C [Rifampicin]",
    "Assay Result": "−2.98 ± 0.113 Log10 CFU/g of catheter"
  }
]
